Values were extracted from ChEMBL document CHEMBL1133283.

# Tested on: NCI-H522
# Experiment notes: In vitro growth inhibition of compound was determined against NCI-H522 cell lines of non-small cell lung cancer
# Type: functional
# Cond: Homo sapiens
Measurement kind: GI50 (nM)
One number for each entry, in nM.

CCN(CC)C(=S)SS(=O)(=O)c1ccc(N)cc1	1000

Each compound below has a reported value. Please supply its GI50.
1. CCN(CC)C(=S)SS(=O)(=O)c1ccccc1[N+](=O)[O-]
2. CCN(CC)C(=S)SS(=O)(=O)c1ccccc1C(=O)O
3. CCN(CC)C(=S)SS(=O)(=O)c1ccc([N+](=O)[O-])cc1

80
1200
20

###

The compounds below have reported pKi for Carbonic anhydrase 2 (Homo sapiens, UniProt P00918).
Numbers only, as −log10 of the molar value.

Worked set:
NS(=O)(=O)c1ccc(CCNSC(=S)N2CCOCC2)cc1	7.46
NS(=O)(=O)c1ccc(NSC(=S)N2CCOCC2)cc1	7.46

With those in mind, consider the next compound.
Input NS(=O)(=O)c1ccc(CNSC(=S)N2CCOCC2)cc1 , output reported pKi.
7.46

###

# Tested on: DU-145
# Experiment notes: In vitro growth inhibition of compound was determined against DU-145 cell lines of Prostate cancer
# Type: functional
# Cond: Homo sapiens
Provide the reported GI50 of each item.

Worked cases, GI50 given:
CCN(CC)C(=S)SS(=O)(=O)c1ccc(NC(C)=O)cc1	23 µM
CCN(CC)C(=S)SS(=O)(=O)c1ccccc1[N+](=O)[O-]	19 µM
CCN(CC)C(=S)SS(=O)(=O)c1ccc([N+](=O)[O-])cc1	27 µM
CCN(CC)C(=S)SS(=O)(=O)c1ccc(N)cc1	> 100 µM

Now examine the next entry.
Give the reported value of GI50 for this record: CCN(CC)C(=S)SS(=O)(=O)c1ccccc1C(=O)O
> 100 µM

###

# System: K562
# Experiment notes: In vitro growth inhibition of compound was determined against K-562 cell lines of Leukemia
# Type: functional
# Cond: Homo sapiens
Measurement kind: GI50 (µM)
Numbers only, in µM.

CCN(CC)C(=S)SS(=O)(=O)c1ccc([N+](=O)[O-])cc1	19
CCN(CC)C(=S)SS(=O)(=O)c1ccc(NC(C)=O)cc1	69
CCN(CC)C(=S)SS(=O)(=O)c1ccc(N)cc1	34

Consider the record given below.
Quickly give me recorded GI50 for CCN(CC)C(=S)SS(=O)(=O)c1ccccc1[N+](=O)[O-]
11

###

# System: MDA-N
# Experiment notes: In vitro growth inhibition of compound was determined against MDA-Ncell lines of Breast cancer
# Assay type: functional
# Cond: Homo sapiens
Measurement kind: GI50 (µM)
Answers are plain numbers, in µM.

CCN(CC)C(=S)SS(=O)(=O)c1ccc(N)cc1	65
CCN(CC)C(=S)SS(=O)(=O)c1ccccc1[N+](=O)[O-]	19
CCN(CC)C(=S)SS(=O)(=O)c1ccc(NC(C)=O)cc1	21

Switching to the query record.
Print MDA-N GI50 for CCN(CC)C(=S)SS(=O)(=O)c1ccc([N+](=O)[O-])cc1 .
30

###

# System: NCI/ADR-RES
# Experiment notes: In vitro growth inhibition of compound was determined against NCI/ADR-RES cell lines of Breast cancer
# Format: functional
# Cond: Homo sapiens
Would you mind telling me the reported GI50 of each entry?
Give bare numbers, in µM.

The following compounds have reported results that may help.
CCN(CC)C(=S)SS(=O)(=O)c1ccc(NC(C)=O)cc1	27
CCN(CC)C(=S)SS(=O)(=O)c1ccccc1[N+](=O)[O-]	30

Tell us which GI50 value is on record for CCN(CC)C(=S)SS(=O)(=O)c1ccc([N+](=O)[O-])cc1
48
